What Assay (I) Glucagon [EC50] was measured for each of the following?
subject_of_test: glucagon receptor (human, UniProt P47871 26-477)
Sequence (P47871 26-477): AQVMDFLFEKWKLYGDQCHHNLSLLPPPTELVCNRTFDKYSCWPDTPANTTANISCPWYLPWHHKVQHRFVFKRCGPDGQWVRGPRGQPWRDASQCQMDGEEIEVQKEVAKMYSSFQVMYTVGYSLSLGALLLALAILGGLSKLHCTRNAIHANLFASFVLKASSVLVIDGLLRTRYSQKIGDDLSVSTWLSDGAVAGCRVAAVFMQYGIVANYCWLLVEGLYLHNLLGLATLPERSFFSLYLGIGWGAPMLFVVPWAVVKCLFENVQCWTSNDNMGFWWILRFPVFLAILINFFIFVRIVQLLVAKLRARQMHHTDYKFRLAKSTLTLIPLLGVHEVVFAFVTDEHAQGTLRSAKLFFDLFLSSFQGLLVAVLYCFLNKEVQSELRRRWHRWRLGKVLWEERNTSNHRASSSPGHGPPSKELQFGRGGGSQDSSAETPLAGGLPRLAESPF
assay: cell-based or functional assay
*1 amine or outer side, *2 acyl side, *3 side chain or, on linkers, in order; H or OH if unused. Where no end group is shown, it is not given here. Side-chain parts run from the residue outwards. The star is where a group is joined. C18 diacid = O=C(O)CCCCCCCCCCCCCCCCC(=O)*; C16 diacid = O=C(O)CCCCCCCCCCCCCCC(=O)*; γGlu = O=C(O)[C@H](CCC(=O)[*:2])N[*:1]; C14 diacid = O=C(O)CCCCCCCCCCCCC(=O)*; AEEA = NCCOCCOCC(=O)O
Numbers only, in nM.

Below are worked cases with known answers.
binder	Assay (I) Glucagon [EC50], nM
HSQGTFTSDYSRYLDFRRAQDFVK([γGlu-γGlu-AEEA-AEEA-γGlu-C18 diacid])WLLST	1.64
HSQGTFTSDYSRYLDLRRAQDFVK([γGlu-γGlu-AEEA-AEEA-γGlu-C14 diacid])WLLST	0.006
HSQGTFTSDYSRYLDTRRAQDFVK([γGlu-γGlu-AEEA-AEEA-γGlu-C18 diacid])WLEST	0.176
HSQGTFTSDYSKYLDARRAQDFVK([γGlu-γGlu-AEEA-AEEA-γGlu-C18 diacid])WLLQT	0.192
HSQGTFTSDYSKYLDARRAQDFVK([γGlu-γGlu-AEEA-AEEA-γGlu-C16 diacid])WLLST	0.016
HSQGTFTSDYSRYLDIRRAQEFVK([γGlu-γGlu-AEEA-AEEA-γGlu-C18 diacid])WLEST	0.099

For each of the binders below, state Assay (I) Glucagon [EC50].
1. HSQGTFTSDYSRYLESRRAQDFVK([γGlu-γGlu-AEEA-AEEA-γGlu-C18 diacid])WLLST (not fully specified; printed as Nε24-[(4S)-4-carboxy-4-[[(4S)-4-carboxy-4-[[2-[2-[2-[[2-[2-[2-[[(4S)-4-carboxy-4-(17-carboxyheptadecanoylamino)butanoyl]amino]ethoxy]ethoxy]acetyl]amino]ethoxy]ethoxy]acetyl]amino]butanoyl]amino]butanoyl]-[Arg12,Glu15,Lys24,Leu27,Ser25]-Glucagon)
2. HSQGTFTSDYSKYLDLRRAQDFVK([γGlu-γGlu-AEEA-AEEA-γGlu-C16 diacid])WLLST
3. HSQGTFTSDVSKYLESRRAQEFVK([γGlu-γGlu-γGlu-γGlu-C18 diacid])WLLST

A)
1: 0.748; 2: 0.039; 3: 0.118
